Molecular target: T1, recombinant human TIGIT extracellular domain (ECD) (human, UniProt Q495A1 22-138)
T1 construct: also called h-TIGIT ECD; recombinant human TIGIT ECD
T1 sequence: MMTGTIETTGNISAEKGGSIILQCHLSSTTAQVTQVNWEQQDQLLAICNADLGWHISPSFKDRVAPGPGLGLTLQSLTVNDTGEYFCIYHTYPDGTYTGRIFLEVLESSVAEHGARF
Experiment: ELISA, VHH supernatant on h-TIGIT ECD coated plates

| binder | binding result |
| --- | --- |
| 4E5 VHH (VHH, VHH in E. coli supernatant) VHH: QVQLVDSGGGVVEVGASLTLSCETSGLTSSDIAVGWFRQGPGKERESVAAISSDGRFTYYAASVKGRFTISKDNAKSAAFLQMNSLKPEDTAVYYCAARDSGSGYYSRAQWYDYWGQGTQVTVSS | binds |
| 3H7 VHH (VHH, VHH in E. coli supernatant) VHH: QVKLEESGGGLVQAGGSLRLSCAASGSILSAGVMRWYRQAPGKQRELVASIALDGSTGYYIDSVKGRFTISRDNAKNIVYLDMRSLEPADTAVYLCNANIRTDMRSAPFDHWGHGTQVTVSS | binds |

Reference source: patent US20230060388A1
